Measured AC50 of individual entries
# EXPERIMENTAL_SYSTEM: 5-hydroxytryptamine receptor 2C (Homo sapiens, UniProt P28335); note: assay procedure not described here
# Sequence (P28335 whole entry): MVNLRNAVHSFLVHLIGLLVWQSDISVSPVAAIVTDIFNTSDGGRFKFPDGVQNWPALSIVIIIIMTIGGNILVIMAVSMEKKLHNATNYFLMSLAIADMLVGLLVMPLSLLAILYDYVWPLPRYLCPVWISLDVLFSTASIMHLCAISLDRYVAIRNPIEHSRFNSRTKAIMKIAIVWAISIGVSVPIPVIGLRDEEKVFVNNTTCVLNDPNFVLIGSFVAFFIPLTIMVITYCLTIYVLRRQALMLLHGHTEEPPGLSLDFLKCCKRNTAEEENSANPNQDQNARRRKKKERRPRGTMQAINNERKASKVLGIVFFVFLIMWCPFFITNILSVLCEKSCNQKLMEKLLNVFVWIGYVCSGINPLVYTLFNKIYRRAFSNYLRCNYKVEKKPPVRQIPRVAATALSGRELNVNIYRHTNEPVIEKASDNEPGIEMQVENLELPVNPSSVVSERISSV
MEASUREMENT_LABEL: AC50

S=P(N1CC1)(N1CC1)N1CC1 [THIOTEPA]    9.4 µM
CCC(=O)O[C@](Cc1ccccc1)(c1ccccc1)[C@H](C)CN(C)C [PROPOXYPHENE]    > 30 µM
CCOC(=O)C(C)(C)Oc1ccc(Cl)cc1 [CLOFIBRATE]    > 30 µM
COc1ccc(CN2CCN(C(c3ccc(F)cc3)c3ccc(F)cc3)CC2)c(OC)c1OC [LOMERIZINE]    16 µM
CCCCCCCN(CC)CCCC(O)c1ccc(NS(C)(=O)=O)cc1 (stereo unspecified) [IBUTILIDE]    > 30 µM
Oc1cc(O)c(Cl)cn1    > 30 µM

----------
Here, each record is paired with measured AC50 data.
# EXPERIMENTAL_SYSTEM: Beta-1 adrenergic receptor (Homo sapiens, UniProt P08588); note: assay procedure not described here
# Sequence (P08588 whole entry): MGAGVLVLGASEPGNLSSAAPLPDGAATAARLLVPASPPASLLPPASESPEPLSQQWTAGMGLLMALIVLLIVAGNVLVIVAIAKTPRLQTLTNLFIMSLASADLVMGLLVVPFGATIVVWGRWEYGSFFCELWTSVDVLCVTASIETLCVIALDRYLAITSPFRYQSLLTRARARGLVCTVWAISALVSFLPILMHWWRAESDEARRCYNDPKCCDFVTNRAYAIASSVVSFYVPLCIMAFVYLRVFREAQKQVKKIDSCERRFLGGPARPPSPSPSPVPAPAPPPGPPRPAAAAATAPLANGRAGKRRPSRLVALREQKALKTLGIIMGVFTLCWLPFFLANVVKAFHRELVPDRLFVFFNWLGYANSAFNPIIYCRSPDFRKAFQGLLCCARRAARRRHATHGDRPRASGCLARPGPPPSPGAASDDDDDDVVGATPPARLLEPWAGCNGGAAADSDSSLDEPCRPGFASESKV
# Format: functional
Where a SMILES comes first, the peptide text is derived from it. [ ]: non-standard residue; d: D form. pGlu = O=C1CC[C@@H](C(=O)O)N1; Thz = O=C(O)[C@@H]1CSCN1
MEASUREMENT_LABEL: AC50

Cc1onc(-c2c(F)cccc2Cl)c1C(=O)N[C@@H]1C(=O)N2[C@@H]1SC(C)(C)[C@@H]2C(=O)O    > 30 µM
COc1cc(C(=O)OCc2cccc(COC(=O)c3cc(OC)c(OC)c(OC)c3)n2)cc(OC)c1OC    > 30 µM
Cc1cc(C2CCCCC2)n(O)c(=O)c1    > 30 µM
CNCCc1ccc(OC(=O)C(C)C)c(OC(=O)C(C)C)c1    > 30 µM
COc1cc(N)c(Cl)cc1C(=O)NC1CCN(CCCOc2ccc(F)cc2)CC1OC (configuration not stated) [CISAPRIDE]    > 10 µM
CC(O)(CS(=O)(=O)c1ccc(F)cc1)C(=O)Nc1ccc(C#N)c(C(F)(F)F)c1 (configuration not stated) [BICALUTAMIDE]    > 30 µM
NS(=O)(=O)c1cc2c(cc1Cl)N=C(CSCc1ccccc1)NS2(=O)=O [BENZTHIAZIDE]    > 10 µM
CN1CCN=C(c2ccccc2)c2cc(Cl)ccc21    > 30 µM
O=C1OC(OC(=O)c2cccnc2Nc2cccc(C(F)(F)F)c2)c2ccccc21 (configuration not stated) [TALNIFLUMATE]    > 30 µM
CCOC(=O)c1ncn2c1CN(C)C(=O)c1cc(F)ccc1-2    > 30 µM
CCC(=O)O[C@](Cc1ccccc1)(c1ccccc1)[C@H](C)CN(C)C    > 10 µM
O=C(O)Cc1ccccc1Oc1ccc(Cl)cc1Cl    > 10 µM
O=C(O)c1cccnc1Nc1cccc(C(F)(F)F)c1    > 10 µM
CC(C)(Oc1ccc(CCNC(=O)c2ccc(Cl)cc2)cc1)C(=O)O [BEZAFIBRATE]    > 10 µM
CC/C=C\C/C=C\C/C=C\C/C=C\C/C=C\CCCC(=O)OCC    > 30 µM
C[C@@H]1C[C@H]2[C@@H]3CCC4=CC(=O)C=C[C@]4(C)[C@@]3(F)[C@@H](O)C[C@]2(C)[C@@]1(O)C(=O)CO    > 30 µM
Cc1ccnc2c1NC(=O)c1cccnc1N2C1CC1    > 10 µM
CCc1cc2c(s1)-n1c(C)nnc1CN=C2c1ccccc1Cl    > 30 µM
COc1ccc([C@@H]2CC(=O)c3c(O)cc(O)cc3O2)cc1O    > 10 µM
C=CCN1CCc2nc(N)sc2CC1 [TALIPEXOLE]    > 30 µM
CC(C)C[C@H](NC(=O)[C@@H](O)[C@H](N)Cc1ccccc1)C(=O)O    > 30 µM
O=C1CC[C@@H](C(=O)N2CSC[C@H]2C(=O)O)N1 [PIDOTIMOD] ([pGlu]-[Thz]-OH)    > 30 µM
Cn1c(=O)c2c(ncn2CCOC(=O)C(C)(C)Oc2ccc(Cl)cc2)n(C)c1=O [THEOFIBRATE]    > 30 µM
CC(=O)O[C@]1(C(C)=O)CC[C@H]2[C@@H]3C=C(Cl)C4=CC(=O)[C@@H]5C[C@@H]5[C@]4(C)[C@H]3CC[C@@]21C [CYPROTERONE ACETATE]    > 10 µM
CCC(NC(C)C)C(O)c1ccc(O)c2[nH]c(=O)ccc12 (configuration not stated)    17 µM
CNC(=C[N+](=O)[O-])NCCSCc1csc(CN(C)C)n1    > 10 µM
C[C@]12CCC(=O)C[C@@H]1CC[C@@H]1[C@@H]2CC[C@]2(C)[C@@H](O)CC[C@@H]12    > 30 µM
CCCN1CCCC[C@H]1C(=O)Nc1c(C)cccc1C    > 30 µM
CCOC(=O)c1ccc(N)cc1    > 10 µM
Clc1ccc(Cn2c(CN3CCCC3)nc3ccccc32)cc1    > 30 µM
CCOc1cc([C@@H](CS(C)(=O)=O)N2C(=O)c3cccc(NC(C)=O)c3C2=O)ccc1OC    > 30 µM
O=C1Cc2cc(CCN3CCN(c4nsc5ccccc45)CC3)c(Cl)cc2N1    > 10 µM
CCCc1cc(=O)[nH]c(=S)[nH]1    > 10 µM
CCC1(CCC(C)C)C(=O)NC(=O)NC1=O    > 10 µM
Cn1cc(C(=O)[C@@H]2CCc3nc[nH]c3C2)c2ccccc21    > 30 µM
Fc1ccc([C@@H]2CCNC[C@H]2COc2ccc3c(c2)OCO3)cc1    > 10 µM
CCOC(=O)C(C)(C)Oc1ccc(Cl)cc1 [CLOFIBRATE]    > 10 µM

----------
Item-by-item account of AC50
# EXPERIMENTAL_SYSTEM: Voltage-dependent L-type calcium channel subunit alpha-1C (Rattus norvegicus); note: assay procedure not described here
# Sequence (P22002 whole entry): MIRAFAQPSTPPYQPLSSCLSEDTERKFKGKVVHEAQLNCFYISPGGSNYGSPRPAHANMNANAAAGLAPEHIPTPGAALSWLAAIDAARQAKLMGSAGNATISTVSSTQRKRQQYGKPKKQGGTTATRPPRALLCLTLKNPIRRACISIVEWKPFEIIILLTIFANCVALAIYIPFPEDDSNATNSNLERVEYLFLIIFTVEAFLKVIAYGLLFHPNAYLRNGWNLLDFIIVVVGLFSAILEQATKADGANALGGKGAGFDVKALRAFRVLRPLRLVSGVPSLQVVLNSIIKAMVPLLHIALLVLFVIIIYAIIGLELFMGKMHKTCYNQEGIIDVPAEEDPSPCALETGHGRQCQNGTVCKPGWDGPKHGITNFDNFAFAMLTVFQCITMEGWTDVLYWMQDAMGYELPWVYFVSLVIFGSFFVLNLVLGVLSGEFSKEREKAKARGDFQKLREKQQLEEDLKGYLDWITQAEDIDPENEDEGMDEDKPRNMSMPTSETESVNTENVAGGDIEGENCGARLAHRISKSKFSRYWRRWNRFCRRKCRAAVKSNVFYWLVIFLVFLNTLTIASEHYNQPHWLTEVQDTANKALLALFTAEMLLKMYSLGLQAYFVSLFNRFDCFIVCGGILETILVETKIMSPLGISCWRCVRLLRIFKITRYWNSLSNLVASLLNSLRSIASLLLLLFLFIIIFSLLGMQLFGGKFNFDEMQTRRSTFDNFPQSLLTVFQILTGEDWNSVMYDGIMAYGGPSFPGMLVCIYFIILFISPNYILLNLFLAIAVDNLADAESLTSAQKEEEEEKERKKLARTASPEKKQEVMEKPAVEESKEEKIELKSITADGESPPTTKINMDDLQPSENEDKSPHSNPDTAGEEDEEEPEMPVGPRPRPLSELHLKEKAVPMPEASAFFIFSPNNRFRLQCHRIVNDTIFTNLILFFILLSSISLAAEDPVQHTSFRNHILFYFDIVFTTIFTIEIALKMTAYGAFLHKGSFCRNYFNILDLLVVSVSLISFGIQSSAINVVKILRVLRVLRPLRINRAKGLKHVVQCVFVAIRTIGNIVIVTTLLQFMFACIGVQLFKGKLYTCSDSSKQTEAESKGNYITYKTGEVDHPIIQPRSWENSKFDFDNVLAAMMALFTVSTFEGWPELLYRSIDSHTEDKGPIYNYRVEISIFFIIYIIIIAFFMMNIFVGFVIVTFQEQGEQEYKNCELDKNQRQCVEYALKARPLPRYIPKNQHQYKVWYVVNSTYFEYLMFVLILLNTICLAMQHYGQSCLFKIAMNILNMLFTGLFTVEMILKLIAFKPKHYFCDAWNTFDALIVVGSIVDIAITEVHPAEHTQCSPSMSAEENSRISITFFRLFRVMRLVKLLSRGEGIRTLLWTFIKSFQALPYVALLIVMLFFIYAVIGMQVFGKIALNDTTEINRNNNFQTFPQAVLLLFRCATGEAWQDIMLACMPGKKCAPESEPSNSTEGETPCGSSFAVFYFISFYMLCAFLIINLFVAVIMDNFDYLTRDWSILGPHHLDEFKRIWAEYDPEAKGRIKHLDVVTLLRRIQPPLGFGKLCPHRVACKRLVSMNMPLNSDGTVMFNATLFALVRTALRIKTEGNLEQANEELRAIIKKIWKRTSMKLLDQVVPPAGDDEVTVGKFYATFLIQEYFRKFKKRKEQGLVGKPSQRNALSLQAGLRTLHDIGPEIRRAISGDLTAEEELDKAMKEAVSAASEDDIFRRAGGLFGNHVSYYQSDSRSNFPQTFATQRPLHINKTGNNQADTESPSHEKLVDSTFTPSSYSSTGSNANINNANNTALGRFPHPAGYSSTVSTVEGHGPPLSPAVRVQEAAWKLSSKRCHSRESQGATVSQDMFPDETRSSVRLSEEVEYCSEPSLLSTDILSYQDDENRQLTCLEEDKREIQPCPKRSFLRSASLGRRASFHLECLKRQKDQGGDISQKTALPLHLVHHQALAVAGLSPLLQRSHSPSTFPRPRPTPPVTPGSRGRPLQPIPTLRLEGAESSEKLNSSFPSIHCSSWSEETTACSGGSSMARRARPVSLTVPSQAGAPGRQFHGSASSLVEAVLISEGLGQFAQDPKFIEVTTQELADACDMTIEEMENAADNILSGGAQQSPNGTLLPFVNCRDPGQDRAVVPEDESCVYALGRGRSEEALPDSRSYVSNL
# Format: functional
MEASUREMENT_LABEL: AC50

Cn1c(=O)c2c(ncn2CCOC(=O)C(C)(C)Oc2ccc(Cl)cc2)n(C)c1=O [THEOFIBRATE]    > 30 µM
Cc1cccc(C)c1NC(=O)CC12CCCN1CCC2 [PILSICAINIDE]    > 30 µM
CNC(=C[N+](=O)[O-])NCCSCc1csc(CN(C)C)n1    > 10 µM
O=C1Nc2ccc(Cl)cc2C(c2ccccc2Cl)=NC1O (centres undefined)    > 10 µM
CCCc1cc(=O)[nH]c(=S)[nH]1    > 10 µM
NNC(=O)c1ccncc1    > 30 µM
CCC(=O)O[C@](Cc1ccccc1)(c1ccccc1)[C@H](C)CN(C)C    > 10 µM
OC[C@H]1O[C@@H](Oc2cc(O)cc(/C=C/c3ccc(O)cc3)c2)[C@H](O)[C@@H](O)[C@@H]1O    > 30 µM
C=C1c2cccc(O)c2C(=O)C2=C(O)[C@]3(O)C(=O)C(C(N)=O)=C(O)[C@@H](N(C)C)[C@@H]3[C@@H](O)[C@H]12    > 10 µM

----------
# EXPERIMENTAL_SYSTEM: Muscarinic acetylcholine receptor M2 (Homo sapiens, UniProt P08172); note: assay procedure not described here
# Sequence (P08172 whole entry): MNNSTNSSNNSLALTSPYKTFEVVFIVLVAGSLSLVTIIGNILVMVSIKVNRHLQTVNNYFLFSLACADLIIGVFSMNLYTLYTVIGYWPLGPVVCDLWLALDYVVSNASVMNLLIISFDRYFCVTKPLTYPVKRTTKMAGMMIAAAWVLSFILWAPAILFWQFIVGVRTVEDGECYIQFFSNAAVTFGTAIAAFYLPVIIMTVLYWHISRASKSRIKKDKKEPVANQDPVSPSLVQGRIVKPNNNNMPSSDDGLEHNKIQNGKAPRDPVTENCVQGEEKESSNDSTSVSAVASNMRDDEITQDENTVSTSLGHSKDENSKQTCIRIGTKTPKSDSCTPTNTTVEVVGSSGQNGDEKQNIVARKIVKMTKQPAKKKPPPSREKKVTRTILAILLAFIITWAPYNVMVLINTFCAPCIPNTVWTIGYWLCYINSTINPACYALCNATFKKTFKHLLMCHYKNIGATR
# Type: functional, cell-based
MEASUREMENT_LABEL: AC50

CN(CCOc1ccc(CC2SC(=O)NC2=O)cc1)c1ccccn1 (stereo not given)    > 30 µM
CC(c1cc2ccccc2s1)N(O)C(N)=O (stereo not given)    > 10 µM
CC(C)[C@H](N)C(=O)OCCOCn1cnc2c(=O)[nH]c(N)nc21    > 10 µM
COc1cc(C(=O)NC2CCCNC2)cc(OC)c1OC (stereo not given) [TROXIPIDE]    > 30 µM
CCCc1cc(=O)[nH]c(=S)[nH]1    > 10 µM

----------
# EXPERIMENTAL_SYSTEM: Alpha-2A adrenergic receptor (Homo sapiens, UniProt P08913); note: assay procedure not described here
# Sequence (P08913 whole entry): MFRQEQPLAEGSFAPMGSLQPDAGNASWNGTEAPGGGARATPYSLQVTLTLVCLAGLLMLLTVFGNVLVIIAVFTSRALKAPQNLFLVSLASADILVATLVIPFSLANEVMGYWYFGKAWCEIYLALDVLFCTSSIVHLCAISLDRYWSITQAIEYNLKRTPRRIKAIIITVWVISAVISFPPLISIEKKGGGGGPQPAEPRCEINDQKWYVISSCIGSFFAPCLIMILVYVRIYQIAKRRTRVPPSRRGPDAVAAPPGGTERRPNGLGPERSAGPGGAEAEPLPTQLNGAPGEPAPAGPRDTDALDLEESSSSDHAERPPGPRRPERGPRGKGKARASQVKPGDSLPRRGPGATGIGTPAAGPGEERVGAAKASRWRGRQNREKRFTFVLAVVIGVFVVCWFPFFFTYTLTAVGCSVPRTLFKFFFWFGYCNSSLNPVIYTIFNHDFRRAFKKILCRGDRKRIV
# Type: functional, cell-based
The entries below are paired with their reported AC50.
MEASUREMENT_LABEL: AC50

CN[C@@H](C)[C@@H](O)c1ccccc1    > 10 µM
COC(=O)[C@H]1[C@H]2C[C@@H]3c4[nH]c5cc(OC)ccc5c4CCN3C[C@H]2C[C@@H](OC(=O)c2cc(OC)c(OC)c(OC)c2)[C@@H]1OC    > 10 µM
Cn1cc(C(=O)[C@@H]2CCc3nc[nH]c3C2)c2ccccc21    > 30 µM
CCCN1CC(NS(=O)(=O)N(CC)CC)CC2Cc3c(O)cccc3CC21 (stereo not drawn) [QUINAGOLIDE]    > 30 µM
OC[C@H]1O[C@@H](Oc2cc(O)cc(/C=C/c3ccc(O)cc3)c2)[C@H](O)[C@@H](O)[C@@H]1O    > 30 µM
CN(C)CCCN1c2ccccc2CCc2ccccc21    > 10 µM
O=C1c2cccc3c2[C@H](CCC3)CN1[C@@H]1CN2CCC1CC2    > 30 µM
O=C(O)Cc1ccccc1Oc1ccc(Cl)cc1Cl    > 10 µM
